# Tested on: SNB-19 CNS
# procedure text: NCI tumour cell line growth inhibition, 48 h
measure: TGI

Look over these answered cases.
compound	TGI
CC1(C)C=Cc2c(cc3oc4ccc5c(c4c(=O)c3c2O)C=CC(C)(C)O5)O1	> 100 µM
CCc1c2c(nc3cc4c(c(N)c13)OCO4)-c1cc3c(c(=O)n1C2)COC(=O)[C@]3(O)CC	0.183 µM

Proceed to the following item.
### Prompt Which TGI reading was recorded for the compound CN(C)CC1CCCC(CN2CCCCC2)C1=O (stereo not given) ?
### Response > 100 µM

---

# Tested on: HCT-116 colon
# procedure text: NCI tumour cell line growth inhibition, 48 h
measure: TGI

As a guide, the following entries are already answered.
compound	result
Cc1n[n+](CC(=O)c2ccccc2)c2sc(N)nn12	> 100 µM
CO[C@H]1ON=C(c2c(C)cc(C)cc2C)[C@@H]1C1(c2ccccc2)ON=C(c2c(C)cc(C)cc2C)O1 (stereo not given in full)	> 100 µM
C=C[C@]1(O)CCC[C@]2(C)C(=O)CCC12C (stereo not given in full)	> 100 µM
CCCCOCn1c(=O)[nH]c(=O)c2ccccc21	> 100 µM
COc1ccccc1/C=C/C(=O)c1c(O)cc2occc2c1OC	> 100 µM

### Prompt Report TGI for Sc1ccc2ccccc2c1CNCc1ccccc1 tested on HCT-116 colon.
### Response 33.4 µM

### Prompt So what TGI did NC1OC(COC(=O)c2ccccc2)C(O)C(OC(=O)c2ccccc2)C1OC(=O)c1ccccc1 (stereo not given) get with HCT-116 colon?
### Response 34.2 µM

### Prompt Hello, I am looking for reported TGI with HCT-116 colon for COc1ccc(CC2c3cc(OC)c(OC)c(OC)c3CC[N+]2(C)C)cc1Oc1ccc(CC2c3cc4c(c(OC)c3CC[N+]2(C)C)OCO4)cc1 (stereo not given) . Could you help?
### Response > 100 µM

### Prompt What value of TGI on HCT-116 colon does COc1ccc(N=Nc2c(C)c(C#N)c(=S)n(C3OC(COC(C)=O)C(OC(C)=O)C(OC(C)=O)C3OC(C)=O)c2C)cc1 (stereo not given) have?
### Response > 100 µM

### Prompt What is its TGI for HCT-116 colon? Entry: C=C1[C@H](OC(=O)C(C)C)[C@@H](OC(C)=O)[C@@H](OC(C)=O)C(C)(C)[C@@H]2O[C@H]2[C@@H](C)C(=O)[C@@]2(OC(C)=O)C[C@@](C)(OC(C)=O)[C@H](OC(C)=O)[C@@H]2[C@H]1OC(C)=O
### Response > 100 µM
